Exercise: state measured fold change in fluorescence relative to zaprinast alone for each of the compounds provided.
- System: GCaMP5-expressing T. gondii
- Construct: whole extracellular parasites expressing GCaMP5 Ca2+ sensor
- Set-up: species or system GCaMP5-expressing Toxoplasma gondii, extracellular; GCaMP5 fluorescence (cytosolic Ca2+) after 100 uM zaprinast in compound-pretreated extracellular parasites, background-subtracted, relative to zaprinast alone
- STATED CONDITIONS: 100 uM zaprinast stimulation; 10 min pretreatment; mean of two replicates; 0.23 h

**Q:** Fill blank: measured fold change in fluorescence relative to zaprinast alone of the compound NS(=O)(=O)c1cccc(N=Cc2c(O)[nH]c3ccc(S(=O)(=O)Cc4c(Cl)cccc4Cl)cc23)c1 [GSK398099A] is ____.
**A:** 1.056

**Q:** Fill blank: measured fold change in fluorescence relative to zaprinast alone of the compound COC(=O)c1cccc(NC(=O)NC2CCN(c3ccnc(Nc4ccc(OC)cc4)n3)C2)c1 (centres unmarked) [GSK1379746A] is ____.
**A:** 1.123

**Q:** Fill blank: measured fold change in fluorescence relative to zaprinast alone of the compound Nc1nc(-c2ccc3c(N)n[nH]c3c2)cc(N2CCCC2)n1 [GSK2227430A] is ____.
**A:** 1.158

**Q:** Fill blank: measured fold change in fluorescence relative to zaprinast alone of the compound Cc1ccc(F)c(C(=O)Nc2cccc(-c3nn4ccccc4c3-c3ccnc(Nc4cccc(F)c4)n3)c2)c1F [GSK361061A] is ____.
**A:** 0.9289

**Q:** Fill blank: measured fold change in fluorescence relative to zaprinast alone of the compound "COc1ccc(C2=C(N3CCc4ccccc43)C(=O)NC2=O)cc1" is ____.
**A:** 1.153

----------
Exercise: state measured fold change in fluorescence relative to zaprinast alone for each of the compounds provided.
- Tested on: GCaMP5-expressing T. gondii
- Construct: whole extracellular parasites expressing GCaMP5 Ca2+ sensor
- Set-up: species or system GCaMP5-expressing Toxoplasma gondii, extracellular; GCaMP5 fluorescence (cytosolic Ca2+) after 100 uM zaprinast in compound-pretreated extracellular parasites, background-subtracted, relative to zaprinast alone
- STATED CONDITIONS: 100 uM zaprinast stimulation; 10 min pretreatment; mean of two replicates; 0.23 h
- Method: GCaMP5-expressing parasites were suspended in Ringer's solution at 4 × 10^7 parasites/ml, and 50 μl of parasites were applied to each well of a 96-well plate (Costar, catalog no. 3631). […] Parasites were then treated with 100 μM zaprinast or 0.1% DMSO as a vehicle control and incubated at 37 °C with 5% CO2 for an additional 4 min before measuring fluorescence with excitation and emission wavelengths of 485 and 525 nm, respectively, on a SpectraMax M3 (Molecular Devices). […]
Give a plain numeric answer without units written out.

**Q:** Fill blank: measured fold change in fluorescence relative to zaprinast alone of the compound CCCC(=O)Nc1[nH]nc2ncccc12 [SB-601436] is ____.
**A:** 0.9225

**Q:** Fill blank: measured fold change in fluorescence relative to zaprinast alone of the compound FC(F)(F)c1ccc(-c2ncn(CCCN3CCOCC3)c2-c2ccncc2)cc1 [SB-217780] is ____.
**A:** 0.91

**Q:** Fill blank: measured fold change in fluorescence relative to zaprinast alone of the compound COc1cc2nccc(Nc3ccc(OCc4ccc(NC(C)=O)cc4)cc3)c2cc1OC [GW440135A] is ____.
**A:** 1.118

**Q:** Fill blank: measured fold change in fluorescence relative to zaprinast alone of the compound Cc1ccc(-c2nc(Nc3ccncc3)c3ccccc3n2)s1 [GSK189015A] is ____.
**A:** 0.1154

**Q:** Fill blank: measured fold change in fluorescence relative to zaprinast alone of the compound Cc1ccc(Nc2ccnc(Nc3cccc(C(N)=O)c3)n2)cc1O [GW575808A] is ____.
**A:** 1.342

**Q:** Fill blank: measured fold change in fluorescence relative to zaprinast alone of the compound CCn1c(-c2nonc2N)nc2cncc(Br)c21 [SB-738004] is ____.
**A:** 0.8309

**Q:** Fill blank: measured fold change in fluorescence relative to zaprinast alone of the compound Nc1nccc(-c2c(-c3ccc(F)cc3)ncn2C2CCN(Cc3ccccc3)CC2)n1 [SB-219980] is ____.
**A:** 0.5084

**Q:** Fill blank: measured fold change in fluorescence relative to zaprinast alone of the compound N#Cc1ccc(-c2cc(-c3cn[nH]c3-c3ccccn3)ccn2)cc1 [GW693028X] is ____.
**A:** 1.123

**Q:** Fill blank: measured fold change in fluorescence relative to zaprinast alone of the compound COc1ccc2[nH]c3c4[nH]c5ccc(OC)cc5c4c4c(c3c2c1)C(=O)NC4=O [GW296115X] is ____.
**A:** 0.5167

**Q:** Fill blank: measured fold change in fluorescence relative to zaprinast alone of the compound O=c1cc(N2CCOCC2)nc2n(Cc3cccc(C(F)(F)F)c3)ccn12 [GSK2297543A] is ____.
**A:** 0.8956

**Q:** Fill blank: measured fold change in fluorescence relative to zaprinast alone of the compound O=C(Nc1n[nH]c2cc(-c3ccccc3)ccc12)C1CC1 [SB-732941] is ____.
**A:** 1.147

**Q:** Fill blank: measured fold change in fluorescence relative to zaprinast alone of the compound CN1CCN(CCNc2nc3ccc(Oc4ccc(NC(=O)Nc5cc(C(F)(F)F)ccc5F)cc4)cc3[nH]2)CC1 [GW768504A] is ____.
**A:** 0.9512

**Q:** Fill blank: measured fold change in fluorescence relative to zaprinast alone of the compound CC1=C(C(=O)Nc2ccc3[nH]ncc3c2)C(c2ccc(Cl)c(Cl)c2)CC(=O)N1 (stereo not drawn) [GSK299115A] is ____.
**A:** 1.214

**Q:** Fill blank: measured fold change in fluorescence relative to zaprinast alone of the compound CC(C)(C)n1cnc2c(N)ncnc21 [SKF-97359] is ____.
**A:** 1.052

**Q:** Fill blank: measured fold change in fluorescence relative to zaprinast alone of the compound O=C(Nc1cccc(-c2nn3ncccc3c2-c2ccnc(Nc3cccc(C(F)(F)F)c3)n2)c1)c1c(F)cccc1F [GSK299495A] is ____.
**A:** 1.22

**Q:** Fill blank: measured fold change in fluorescence relative to zaprinast alone of the compound CC(C)N1CCC(n2cnc(-c3ccc(F)cc3)c2-c2ccnc(N)n2)CC1 [SB-223132] is ____.
**A:** 0.4026

**Q:** Fill blank: measured fold change in fluorescence relative to zaprinast alone of the compound NS(=O)(=O)c1ccc(-c2ccc3c(NC(=O)C4CC4)n[nH]c3c2)cc1 [SB-738482] is ____.
**A:** 1.098

**Q:** Fill blank: measured fold change in fluorescence relative to zaprinast alone of the compound Nc1nccc2scc(-c3ccc4c(c3)CCN4C(=O)Cc3ccccc3)c12 [GSK2576924A] is ____.
**A:** 0.9278

**Q:** Fill blank: measured fold change in fluorescence relative to zaprinast alone of the compound CN1CCC(C(=O)Nc2n[nH]c3nnc(-c4ccccc4)cc23)CC1 [SB-678557-A] is ____.
**A:** 1.083

**Q:** Fill blank: measured fold change in fluorescence relative to zaprinast alone of the compound c1ccc(Oc2ccc(Nc3ccnc4cc(-c5ccc(CN6CCNCC6)o5)ccc34)cc2)nc1 [GW567142A] is ____.
**A:** 0.8742

**Q:** Fill blank: measured fold change in fluorescence relative to zaprinast alone of the compound COc1cccc(-n2cnc3c(N)ncnc32)c1 [SKF-97416] is ____.
**A:** 1.043

----------
- Tested on: GCaMP5-expressing T. gondii
- Construct: whole extracellular parasites expressing GCaMP5 Ca2+ sensor
- Set-up: species or system GCaMP5-expressing Toxoplasma gondii, extracellular; GCaMP5 fluorescence (cytosolic Ca2+) after 100 uM zaprinast in compound-pretreated extracellular parasites, background-subtracted, relative to zaprinast alone
- STATED CONDITIONS: 100 uM zaprinast stimulation; 10 min pretreatment; mean of two replicates; 0.23 h
Exercise: state measured fold change in fluorescence relative to zaprinast alone for each of the molecules provided.
Give a plain numeric answer without units written out.

**Q:** Query for GCaMP5-expressing T. gondii: what fold change in fluorescence relative to zaprinast alone does the record show for "CCN1CCC(CC(=O)Nc2n[nH]c3nnc(-c4cccc(F)c4F)cc23)CC1" ?
**A:** 1.047

**Q:** Query for GCaMP5-expressing T. gondii: what fold change in fluorescence relative to zaprinast alone does the record show for COc1cc(Nc2nccc(-c3cnn4ncccc34)n2)cc(OC)c1 [GW801372X] ?
**A:** 0.4013

**Q:** Query for GCaMP5-expressing T. gondii: what fold change in fluorescence relative to zaprinast alone does the record show for C#Cc1cccc(Nc2ncnc3ccc(OCCCCNCCS(C)(=O)=O)cc23)c1 [GW680191X] ?
**A:** 1.038

The origin of these recorded values is paper PMC4850295.
